Data provenance is a melting point compilation (Tetko et al.; mined from patent text by program, amines drawn as free bases though some values may be those of a salt).

What melting point was measured for each of the following?

Answer with reported melting point of Cn1nc(S(C)(=O)=O)c(=O)c2ccccc21
202 to 204 °C

Answer with reported melting point of CCOC(=O)CCc1cccc(C(=O)c2cccc(C(=O)OCC)c2)c1C=CCCCCO
48 to 50 °C

Answer with reported melting point of CC(NC(=O)Nc1cc(Cl)ccc1CCc1cc(C(C)(C)C)c(O)c(C(C)(C)C)c1)c1ccccc1 (stereo not given)
167 to 168 °C

Answer with reported melting point of CCOc1cc(-c2nc3ccccc3[nH]2)n[nH]1
217 to 220 °C

Answer with reported melting point of O=C(c1ccc(Br)cc1F)N1CCN(c2ccncc2)CC1
125 to 126 °C

Answer with reported melting point of CC(C)(C)NC(=O)c1nn(-c2ccccc2)c2c1C1CCC2C1 (stereo not given)
101 to 103 °C

Answer with reported melting point of O=[N+]([O-])c1ccccc1C1=NCC(=S)Nc2sc(Cl)cc21
213 to 215 °C

Answer with reported melting point of CCCCc1oc2ccccc2c1C=NOCCCOc1ccc(C(=O)O)cc1-c1ccc(C(F)(F)F)cc1
140 °C

Answer with reported melting point of CC1(C)CC(=O)c2c(SCc3ccco3)sc(-c3cc[nH]n3)c2C1
198 to 200 °C

Answer with reported melting point of NCCCCCCCCCCCCCCCCCCCC(=O)O
172 to 174 °C

Answer with reported melting point of O=Cc1cnc(-c2ccc(F)cc2)nc1
168 °C

Answer with reported melting point of CCOc1ccc(C2C(C(=O)c3ccc(C(C)C)cc3)=C(O)C(=O)N2c2ccc(C)nn2)nc1 (stereo not given)
198 to 199 °C

Answer with reported melting point of COCCN(CC1=CCC(N)(Oc2ccccc2)C=C1)C(=O)C(Cl)Cl (stereo not given)
100 to 102 °C

Answer with reported melting point of O=[N+]([O-])c1cc(O)c(Br)cc1F
124 to 126 °C

Answer with reported melting point of FC(F)(F)c1ccc(-c2cc(Oc3cncc4ccccc34)ncn2)cc1
206 to 211 °C

Answer with reported melting point of COn1c(-c2ccccc2)nc2cnc3ccccc3c21
194 to 195 °C

Answer with reported melting point of Cc1ccc(CC(N)C(O)C(N)Cc2ccccc2)cc1 (stereo not given)
126 to 128 °C

Answer with reported melting point of COc1ccc(CN2CCC(NC(=O)OC(C)(C)C)CC2)cc1
95 to 97 °C

Answer with reported melting point of C/C(=C\c1ccc(C(=O)O)cc1)c1ccc2c(c1)C(C)(C)C(O)CC2(C)C (stereo not given)
250 to 252 °C

Answer with reported melting point of CC(C)CCOCc1cc(-n2nc(C(N)=O)nc2-c2ccccc2F)ccc1Cl
113 to 115 °C

Answer with reported melting point of CCCC(=O)Nc1c(C)c(C)c2c(c1C)C(c1ccc(C(C)C)cc1)C(C)(C)O2 (stereo not given)
120 to 122 °C

Answer with reported melting point of Cc1c(C(=O)c2cccnc2)sc2cc(Br)ccc12
110 to 111 °C

Answer with reported melting point of CCCc1nc(C)n2[nH]c(=O)nc2c1Cc1ccc(-c2ccccc2C#N)cc1
215 to 216 °C

Answer with reported melting point of CN(CCN1CCN(c2cccc3c2OCCO3)CC1)c1cnn(C)c(=O)c1Cl
114 to 116 °C

Answer with reported melting point of CNC(=S)C1(c2cnc3ccccc3c2)CCCCC1=CC=O (stereo not given)
149 to 151 °C

Answer with reported melting point of CN1C(=O)C2C3C=CC(C3)C2(c2ccc3c(c2)CCCC3)C1=O (stereo not given)
78 to 86 °C

Answer with reported melting point of COc1ccc2c(c1)C(=O)C(CN1CCC(O)(c3ccc(F)cc3)CC1)CC2 (stereo not given)
193 to 195 °C

Answer with reported melting point of CCN1C(=O)C(C)(C)C(=O)Nc2cc(C#N)ccc21
215 to 218 °C

Answer with reported melting point of NS(=O)(=O)c1ccc(-c2cccc(-c3nc(-c4ccc(Cl)cc4)cc(C(F)(F)F)n3)c2)s1
226 °C

Answer with reported melting point of CCCCCCOC(=O)C1=C(C)NN=C(c2ccccc2)C1c1cccc(Cl)c1 (stereo not given)
103 °C

Answer with reported melting point of CON(Cc1ccc(C)c(F)c1)C(=O)C1=C(O)C(=O)N(C)C1
145 °C

Answer with reported melting point of Cc1ccc(C(=O)OC2CCCCC2=O)cc1 (stereo not given)
68 to 69 °C

Answer with reported melting point of CCc1ccc2c(c1)cc(C(=O)Nc1nc(-c3c(OC)cc(C)cc3OC)n(CCC3CCCCC3)n1)n2CC(=O)O
198 °C

Answer with reported melting point of CCOC(=O)c1nnc2n1-c1sc(Cl)cc1C(c1ccccc1[N+](=O)[O-])=NC2
143 to 145 °C

Answer with reported melting point of CCC(C)Sc1cc(C(=O)O)cc(N)c1Oc1ccccc1 (stereo not given)
157 to 159 °C

Answer with reported melting point of NS(=O)(=O)c1ccc(-c2cc(-c3nc(-c4ccc(Cl)c(Cl)c4)cc(C(F)(F)F)n3)ccn2)s1
266 °C

Answer with reported melting point of CCCCN1C(=O)CC(Sc2cc(C(C)(C)C)c(O)c(C(C)(C)C)c2)C1=O (stereo not given)
80 to 85 °C

Answer with reported melting point of CCOCc1nc2cnc3cc(-c4ccccc4)ccc3c2n1CC1CCN(C(=O)OC(C)(C)C)CC1
166 to 167 °C

Answer with reported melting point of CCCCOCCOc1ccc(-c2ccc(N(C)Cc3cnn(C)c3)c(C=CC(=O)O)c2)cc1
125 to 127 °C

Answer with reported melting point of OC1CCCC(n2c(NC3CC3)nc3cc(Cl)c(Cl)cc32)C1O (stereo not given)
> 25 °C
